Biological target: T1, purified recombinant IFNAR-1 extracellular fragment (human, UniProt P17181 28-436)
T1 construct: extracellular domain; also called soluble IFNAR-1; soluble IFNAR
T1 sequence (looked up): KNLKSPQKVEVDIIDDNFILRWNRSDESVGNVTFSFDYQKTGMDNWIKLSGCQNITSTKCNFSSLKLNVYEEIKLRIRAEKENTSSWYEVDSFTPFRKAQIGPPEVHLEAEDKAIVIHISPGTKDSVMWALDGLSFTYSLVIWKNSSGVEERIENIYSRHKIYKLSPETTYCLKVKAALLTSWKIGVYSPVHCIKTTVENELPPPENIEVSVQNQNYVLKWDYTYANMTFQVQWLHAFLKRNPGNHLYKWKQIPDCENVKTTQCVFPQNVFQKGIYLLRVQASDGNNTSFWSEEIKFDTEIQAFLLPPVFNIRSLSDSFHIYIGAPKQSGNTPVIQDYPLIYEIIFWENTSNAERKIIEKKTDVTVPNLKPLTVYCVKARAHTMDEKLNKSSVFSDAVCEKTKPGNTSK
Test: Biacore, maximal association on IFNAR-1 relative to M3K1
Assignment: determine reported % activity relative to M3K1 for the given binders.
Express the result in % but write the number alone.

Record request: % activity relative to M3K1 value, item H3K1 (IgG4) (antibody, V domains shown, also called H3K1 standard; humanized anti-IFNAR-1 mAb H3K1) VH: EVQLVESGGGLVQPGGSLRLSCAFSGFTLSTSGMGIGWVRQAPGKGLEWVAHIWWDDDKYYNPSLKSRFTISRDTSKNTVYLQMNSLRAEDTAVYYCARNYYPYDAWFDYWGQGTLVTVS VL: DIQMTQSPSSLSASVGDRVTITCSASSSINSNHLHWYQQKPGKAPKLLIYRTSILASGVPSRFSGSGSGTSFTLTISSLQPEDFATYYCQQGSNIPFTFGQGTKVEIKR 115

Record request: % activity relative to M3K1 value, item M3-4 (X = K) heavy chain with K1 light chain (antibody, V domains shown, Position counted within VH CDR3; also called M3-4 K) VH: EVQLLESGGGLVQPGGSLRLSCAFSGFTLSTSGMGIGWVRQAPGKGLEWVAHIWWDDDKYYNPSLKSRFTISRDTSKNTVYLQMNSLRAEDTAVYYCARNYYKYDAWFDYWGQGTLVTVS VL: DIQMTQSPSSLSASVGDRVTITCSASSSINSNHLHWYQQKPGKAPKLLIYRTSILASGVPSRFSGSGSGTSFTLTISSLQPEDFATYYCQQGSNIPFTFGQGTKVEIK 86

Record request: % activity relative to M3K1 value, item M3-4 (X = E) heavy chain with K1 light chain (antibody, V domains shown, Position counted within VH CDR3; also called M3-4 E) VH: EVQLLESGGGLVQPGGSLRLSCAFSGFTLSTSGMGIGWVRQAPGKGLEWVAHIWWDDDKYYNPSLKSRFTISRDTSKNTVYLQMNSLRAEDTAVYYCARNYYEYDAWFDYWGQGTLVTVS VL: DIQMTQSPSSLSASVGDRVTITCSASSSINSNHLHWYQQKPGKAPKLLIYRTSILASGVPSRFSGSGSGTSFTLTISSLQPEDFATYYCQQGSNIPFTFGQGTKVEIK 128

Record request: % activity relative to M3K1 value, item M3-4 (X = L) heavy chain with K1 light chain (antibody, V domains shown, the position is counted within CDR3, not on the entry; also called M3-4 L) VH: EVQLLESGGGLVQPGGSLRLSCAFSGFTLSTSGMGIGWVRQAPGKGLEWVAHIWWDDDKYYNPSLKSRFTISRDTSKNTVYLQMNSLRAEDTAVYYCARNYYLYDAWFDYWGQGTLVTVS VL: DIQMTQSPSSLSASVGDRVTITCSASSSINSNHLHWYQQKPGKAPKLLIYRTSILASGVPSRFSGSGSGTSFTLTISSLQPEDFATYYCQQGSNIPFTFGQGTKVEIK 126

Record request: % activity relative to M3K1 value, item M3-4 (X = H) heavy chain with K1 light chain (antibody, V domains shown, Position counted within VH CDR3; also called M3-4 H) VH: EVQLLESGGGLVQPGGSLRLSCAFSGFTLSTSGMGIGWVRQAPGKGLEWVAHIWWDDDKYYNPSLKSRFTISRDTSKNTVYLQMNSLRAEDTAVYYCARNYYHYDAWFDYWGQGTLVTVS VL: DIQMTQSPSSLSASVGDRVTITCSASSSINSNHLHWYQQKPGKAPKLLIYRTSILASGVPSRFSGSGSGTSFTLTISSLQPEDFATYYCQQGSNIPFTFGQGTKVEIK 79

Record request: % activity relative to M3K1 value, item M3-4 (X = S) heavy chain with K1 light chain (antibody, V domains shown, Position counted within VH CDR3; also called M3-4 S) VH: EVQLLESGGGLVQPGGSLRLSCAFSGFTLSTSGMGIGWVRQAPGKGLEWVAHIWWDDDKYYNPSLKSRFTISRDTSKNTVYLQMNSLRAEDTAVYYCARNYYSYDAWFDYWGQGTLVTVS VL: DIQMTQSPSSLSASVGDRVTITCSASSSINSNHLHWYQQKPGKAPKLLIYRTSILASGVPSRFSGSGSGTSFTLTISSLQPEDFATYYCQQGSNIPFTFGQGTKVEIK 110

Record request: % activity relative to M3K1 value, item M3-4 (X = T) heavy chain with K1 light chain (antibody, V domains shown, Position counted within VH CDR3; also called M3-4 T) VH: EVQLLESGGGLVQPGGSLRLSCAFSGFTLSTSGMGIGWVRQAPGKGLEWVAHIWWDDDKYYNPSLKSRFTISRDTSKNTVYLQMNSLRAEDTAVYYCARNYYTYDAWFDYWGQGTLVTVS VL: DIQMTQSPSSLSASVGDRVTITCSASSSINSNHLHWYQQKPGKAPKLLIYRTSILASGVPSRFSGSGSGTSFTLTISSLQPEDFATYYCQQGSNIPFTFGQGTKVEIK 103

Record request: % activity relative to M3K1 value, item M3-4 (X = R) heavy chain with K1 light chain (antibody, V domains shown, Position counted within VH CDR3; also called M3-4 R) VH: EVQLLESGGGLVQPGGSLRLSCAFSGFTLSTSGMGIGWVRQAPGKGLEWVAHIWWDDDKYYNPSLKSRFTISRDTSKNTVYLQMNSLRAEDTAVYYCARNYYRYDAWFDYWGQGTLVTVS VL: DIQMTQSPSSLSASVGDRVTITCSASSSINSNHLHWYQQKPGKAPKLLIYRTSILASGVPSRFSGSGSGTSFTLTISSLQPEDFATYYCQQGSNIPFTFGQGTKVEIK 106

Record request: % activity relative to M3K1 value, item M3-4 (X = W) heavy chain with K1 light chain (antibody, V domains shown, Position counted within VH CDR3; also called M3-4 W) VH: EVQLLESGGGLVQPGGSLRLSCAFSGFTLSTSGMGIGWVRQAPGKGLEWVAHIWWDDDKYYNPSLKSRFTISRDTSKNTVYLQMNSLRAEDTAVYYCARNYYWYDAWFDYWGQGTLVTVS VL: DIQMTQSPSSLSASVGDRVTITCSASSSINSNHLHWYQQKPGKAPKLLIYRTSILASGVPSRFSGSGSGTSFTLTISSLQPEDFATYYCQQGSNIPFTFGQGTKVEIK 93

Record request: % activity relative to M3K1 value, item M3-4 (X = I) heavy chain with K1 light chain (antibody, V domains shown, Position counted within VH CDR3; also called M3-4 I) VH: EVQLLESGGGLVQPGGSLRLSCAFSGFTLSTSGMGIGWVRQAPGKGLEWVAHIWWDDDKYYNPSLKSRFTISRDTSKNTVYLQMNSLRAEDTAVYYCARNYYIYDAWFDYWGQGTLVTVS VL: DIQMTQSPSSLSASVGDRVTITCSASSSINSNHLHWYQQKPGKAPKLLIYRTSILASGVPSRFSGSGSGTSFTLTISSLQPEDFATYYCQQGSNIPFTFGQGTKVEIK 106
